experiment: Plasma PK of evobrutinib by validated LC-MS/MS; type: in vivo, human; conditions: human, plasma, po, 75 mg
assay-endpoint: Cmax (ng/mL)
State just the number; it will be interpreted in ng/mL.

The value of Cmax measured for the compound C=CC(=O)N1CCC(CNc2ncnc(N)c2-c2ccc(Oc3ccccc3)cc2)CC1 [evobrutinib] turned out to be 321
